Parameter MIC: see the listing below.
Test system: Staphylococcus saprophyticus
Test: Antibacterial activity against methicillin-resistant mecA-positive Staphylococcus saprophyticus isolate TSU90 isolated from genitourinary tracts of acute cystitis patient after 24 hrs at 35 degC by agar dilution method
Format: functional
Settings: isolate TSU90, Urine
Please don't drop the unit; write it after the number.

[[record]]
smiles_data = "NC[C@H]1O[C@H](O[C@H]2[C@H](O)[C@@H](O[C@H]3O[C@H](CO)[C@@H](O)[C@H](N)[C@H]3O)[C@H](N)C[C@@H]2N)[C@H](O)[C@@H](O)[C@@H]1O"
measured = "0.5 µg/mL"


Kindly review the next compound as well.
Query string: Given the entry "CC[C@H]1OC(=O)[C@H](C)[C@@H](O[C@H]2C[C@@](C)(OC)[C@@H](O)[C@H](C)O2)[C@H](C)[C@@H](O[C@@H]2O[C@H](C)C[C@H](N(C)C)[C@H]2O)[C@](C)(O)C[C@@H](C)C(=O)[C@H](C)[C@@H](O)[C@]1(C)O" , report its measured MIC.
Result string: 64 µg/mL

Just for reference, ChEMBL document CHEMBL1255354 is where these values come from.
